# Test system: RAW264.7
# ASSAY OVERVIEW: Inhibition of RANKL-induced osteoclast differentiation in mouse RAW264.7 cells assessed as TRAP-positive multinucleated cells level at 2.5 uM incubated with compound in presence of RANKL for 4 days by TRAP staining based light microscopic analysis relative to RANKL alone
# Type: functional
# Design: scale not given: the % may be the effect or the level left
Lab note: anything with Activity at or over 90% counts as 1; the rest go in -1.

{"columns": ["MOL SMILES", "CLASSIFICATION"],
 "data": [
  ["O=C(Nc1ccc(Br)cc1F)c1cc(I)ccc1O", -1],
  ["O=C1c2ccccc2Oc2cc([N+](=O)[O-])ccc2N1c1ccc(Cl)cc1F", 1],
  ["O=C1c2cc(Br)ccc2Oc2cc([N+](=O)[O-])ccc2N1c1ccc(Br)cc1F", -1]
]}

###

# Test system: RAW264.7
# ASSAY OVERVIEW: Inhibition of RANKL-induced osteoclast differentiation in mouse RAW264.7 cells assessed as TRAP-positive multinucleated cells level at 2.5 uM incubated with compound in presence of RANKL for 4 days by TRAP staining based light microscopic analysis relative to RANKL alone
# Assay type: functional
# Parameters: scale not given: the % may be the effect or the level left
// bucketize Activity: 1: < 50%; 2: ≥ 50% and < 80%; 3: ≥ 80%

{"columns": ["MOL SMILES", "ASSAYED TARGET", "CLASSIFICATION"],
 "data": [
  ["O=C(Nc1ccc(I)cc1F)c1cc(F)ccc1O", "RAW264.7", 1],
  ["O=c1oc2ccc(I)cc2c(=O)n1-c1ccc(Cl)cc1F", "RAW264.7", 1],
  ["O=C(Nc1ccc(I)cc1F)c1cc(Br)ccc1O", "RAW264.7", 1],
  ["O=C1c2cc(Cl)ccc2Oc2cc([N+](=O)[O-])ccc2N1c1ccc(F)cc1F", "RAW264.7", 2],
  ["O=C(Nc1ccc(F)cc1F)c1cc(F)ccc1O", "RAW264.7", 3],
  ["O=C(Nc1ccc(F)cc1F)c1cc(Cl)ccc1O", "RAW264.7", 3],
  ["O=c1oc2ccc(Br)cc2c(=O)n1-c1ccc(F)cc1F", "RAW264.7", 3],
  ["O=c1oc2ccc(Br)cc2c(=O)n1-c1ccc(I)cc1F", "RAW264.7", 1],
  ["O=c1oc2ccc(Cl)cc2c(=O)n1-c1ccc(Cl)cc1F", "RAW264.7", 1],
  ["O=c1oc2ccc(F)cc2c(=O)n1-c1ccc(Cl)cc1F", "RAW264.7", 1],
  ["O=c1oc2ccc(Br)cc2c(=O)n1-c1ccc(Cl)cc1F", "RAW264.7", 2],
  ["O=C1c2cc(F)ccc2Oc2cc([N+](=O)[O-])ccc2N1c1ccc(F)cc1F", "RAW264.7", 3],
  ["O=C(Nc1ccc(Br)cc1F)c1cc(F)ccc1O", "RAW264.7", 1],
  ["O=c1oc2ccc(Cl)cc2c(=O)n1-c1ccc(F)cc1F", "RAW264.7", 3],
  ["O=C1c2cc(Cl)ccc2Oc2cc([N+](=O)[O-])ccc2N1c1ccc(I)cc1F", "RAW264.7", 2],
  ["O=C(O)c1cc(F)ccc1O", "RAW264.7", 3],
  ["O=C1c2cc(I)ccc2Oc2cc([N+](=O)[O-])ccc2N1c1ccc(I)cc1F", "RAW264.7", 2],
  ["O=C1c2cc(Cl)ccc2Oc2cc([N+](=O)[O-])ccc2N1c1ccc(Br)cc1F", "RAW264.7", 2],
  ["O=c1oc2ccccc2c(=O)n1-c1ccc(Cl)cc1F", "RAW264.7", 2],
  ["O=c1oc2ccc(Br)cc2c(=O)n1-c1ccc(Br)cc1F", "RAW264.7", 2],
  ["O=C1c2cc(I)ccc2Oc2cc([N+](=O)[O-])ccc2N1c1ccc(Br)cc1F", "RAW264.7", 3],
  ["O=c1oc2ccc(F)cc2c(=O)n1-c1ccc(F)cc1F", "RAW264.7", 3],
  ["O=C1c2cc(I)ccc2Oc2cc([N+](=O)[O-])ccc2N1c1ccc(Cl)cc1F", "RAW264.7", 2]
]}

###

# System: RAW264.7
# ASSAY OVERVIEW: Inhibition of RANKL-induced osteoclast differentiation in mouse RAW264.7 cells assessed as TRAP-positive multinucleated cells level at 2.5 uM incubated with compound in presence of RANKL for 4 days by TRAP staining based light microscopic analysis relative to RANKL alone
# Type: functional
# Design: scale not given: the % may be the effect or the level left
QUANTITY KIND: Activity (%)

{"columns": ["MOL SMILES", "QUANTITY KIND", "OBSERVED VALUE"],
 "data": [
  ["O=C(Nc1ccc(F)cc1F)c1cc(Br)ccc1O", "Activity", 95.2],
  ["O=c1oc2ccccc2c(=O)n1-c1ccc(I)cc1F", "Activity", 66.7],
  ["O=c1oc2ccc(I)cc2c(=O)n1-c1ccc(F)cc1F", "Activity", 84.8]
]}

###

# ASSAY OVERVIEW: Cytotoxicity against mouse RAW264.7 cells assessed as reduction in cell viability after 24 hrs by MTT assay
# Format: cell-based
Reported CC50 at 24 h by item:

{"columns": ["MOL SMILES", "INEQUALITY SYMBOL", "CC50 at 24 h, µM"],
 "data": [
  ["O=C(Nc1ccc(Cl)cc1F)c1cc(Cl)ccc1O", "=", 8],
  ["O=C(Nc1ccc(I)cc1F)c1cc(I)ccc1O", "=", 6],
  ["O=C1c2cc(F)ccc2Oc2cc([N+](=O)[O-])ccc2N1c1ccc(Cl)cc1F", ">", 40],
  ["O=C1c2cc(I)ccc2Oc2cc([N+](=O)[O-])ccc2N1c1ccc(Cl)cc1F", ">", 40],
  ["O=c1oc2ccc(I)cc2c(=O)n1-c1ccc(Br)cc1F", "=", 8.3],
  ["O=C1c2cc(Cl)ccc2Oc2cc([N+](=O)[O-])ccc2N1c1ccc(I)cc1F", ">", 40],
  ["O=c1oc2ccc(I)cc2c(=O)n1-c1ccc(Cl)cc1F", "=", 8.9],
  ["O=c1oc2ccc(Cl)cc2c(=O)n1-c1ccc(I)cc1F", "=", 6.9],
  ["O=C(Nc1ccc(Br)cc1F)c1cc(Cl)ccc1O", "=", 7.8],
  ["O=C(O)c1cc(Br)ccc1O", ">", 40],
  ["O=C(Nc1ccc(Cl)cc1F)c1cc(Br)ccc1O", "=", 9.2],
  ["O=c1oc2ccc(F)cc2c(=O)n1-c1ccc(Br)cc1F", "=", 7.2],
  ["O=c1oc2ccc(Cl)cc2c(=O)n1-c1ccc(F)cc1F", "=", 13.4],
  ["O=c1oc2ccc(Cl)cc2c(=O)n1-c1ccc(Cl)cc1F", "=", 6.8],
  ["O=C(Nc1ccc(F)cc1F)c1cc(F)ccc1O", "=", 15.7],
  ["O=C1c2cc(Br)ccc2Oc2cc([N+](=O)[O-])ccc2N1c1ccc(Br)cc1F", ">", 40],
  ["O=c1oc2ccc(F)cc2c(=O)n1-c1ccc(Cl)cc1F", "=", 7.9],
  ["O=C(Nc1ccc(I)cc1F)c1cc(Cl)ccc1O", "=", 7.6],
  ["O=C1c2cc(F)ccc2Oc2cc([N+](=O)[O-])ccc2N1c1ccc(I)cc1F", ">", 40],
  ["O=C(O)c1cc(I)ccc1O", ">", 40],
  ["O=c1oc2ccccc2c(=O)n1-c1ccc(I)cc1F", "=", 24.5],
  ["O=C(Nc1ccc(Cl)cc1F)c1cc(F)ccc1O", "=", 7.7],
  ["O=C1c2cc(I)ccc2Oc2cc([N+](=O)[O-])ccc2N1c1ccc(Br)cc1F", ">", 40],
  ["O=c1oc2ccc(F)cc2c(=O)n1-c1ccc(F)cc1F", "=", 19.9],
  ["O=C1c2cc(I)ccc2Oc2cc([N+](=O)[O-])ccc2N1c1ccc(F)cc1F", ">", 40],
  ["O=C1c2cc(Br)ccc2Oc2cc([N+](=O)[O-])ccc2N1c1ccc(Cl)cc1F", ">", 40],
  ["O=C1c2cc(F)ccc2Oc2cc([N+](=O)[O-])ccc2N1c1ccc(Br)cc1F", ">", 40],
  ["O=C(Nc1ccc(I)cc1F)c1cc(Br)ccc1O", "=", 6.4],
  ["O=C(Nc1ccc(Br)cc1F)c1cc(Br)ccc1O", "=", 7.8],
  ["O=C1c2cc(I)ccc2Oc2cc([N+](=O)[O-])ccc2N1c1ccc(I)cc1F", ">", 40],
  ["O=C1c2cc(F)ccc2Oc2cc([N+](=O)[O-])ccc2N1c1ccc(F)cc1F", ">", 40],
  ["O=C(Nc1ccc(I)cc1F)c1cc(F)ccc1O", "=", 7.4],
  ["O=C1c2cc(Cl)ccc2Oc2cc([N+](=O)[O-])ccc2N1c1ccc(Br)cc1F", ">", 40],
  ["O=C1c2ccccc2Oc2cc([N+](=O)[O-])ccc2N1c1ccc(Cl)cc1F", ">", 40],
  ["O=c1oc2ccc(Br)cc2c(=O)n1-c1ccc(I)cc1F", "=", 7.9],
  ["O=C1c2ccccc2Oc2cc([N+](=O)[O-])ccc2N1c1ccc(I)cc1F", ">", 40],
  ["O=C(Nc1ccc(F)cc1F)c1cc(Br)ccc1O", "=", 13.8],
  ["O=c1oc2ccc(I)cc2c(=O)n1-c1ccc(F)cc1F", "=", 15.7],
  ["O=C(Nc1ccc(Br)cc1F)c1cc(F)ccc1O", "=", 7.9],
  ["O=C(O)c1cc(F)ccc1O", ">", 40],
  ["O=c1oc2ccc(Br)cc2c(=O)n1-c1ccc(F)cc1F", "=", 16],
  ["O=C(Nc1ccc(F)cc1F)c1cc(I)ccc1O", "=", 13.7],
  ["O=c1oc2ccc(Cl)cc2c(=O)n1-c1ccc(Br)cc1F", "=", 8.1],
  ["O=c1oc2ccc(Br)cc2c(=O)n1-c1ccc(Cl)cc1F", "=", 7.5],
  ["O=C1c2cc(Br)ccc2Oc2cc([N+](=O)[O-])ccc2N1c1ccc(I)cc1F", ">", 40]
]}
